We begin with pIC50 values for VPS34 (Homo sapiens, UniProt Q8NEB9), as collected from the published literature.
pIC50: −log10 of the molar value.

Q: // returns reported pIC50 for input `O=C(O)c1cn(-c2ccnc(NCCc3ccc(O)cc3)n2)nc1-c1ccccc1Cl`
Result: 5.30 to 6.00

Q: Repeat for the following compound: `CC(=O)Nc1cc(-n2cc(-c3nc[nH]n3)c(-c3cc(CN(C)C)ccc3Cl)n2)c(C)cn1`
Result: > 7.30

Q: Repeat for the following compound: `COc1ccccc1-c1nn(-c2cc(NC(C)=O)ncc2C)cc1-c1nc[nH]n1`
Result: 6.00 to 6.82

Q: Repeat for the following compound: `CC(=O)Nc1cc(-c2cn(-c3ccc(Cl)cc3Cl)c(-c3ccn[nH]3)n2)ccn1`
Result: 5.52 to 6.00

Q: Repeat for the following compound: `CC(=O)Nc1cc(-n2cc(-c3ccccc3Cl)c(C(N)=O)n2)ccn1`
Result: 5.30 to 6.00

Q: Repeat for the following compound: `CCc1cc2c(-c3ccnc(NC(C)=O)c3)cncc2n1S(=O)(=O)c1ccccc1`
Result: 7.30 to 8.00

Q: Repeat for the following compound: `COC(=O)Nc1cc(-c2cnc(C)c3c2ccn3S(C)(=O)=O)ccn1`
Result: 7.30 to 8.00

Q: Repeat for the following compound: `CC(=O)Nc1cc(-c2cnc(C)c3c2ccn3S(=O)(=O)N(C)C)ccn1`
Result: > 8.00

Q: Repeat for the following compound: `COC(=O)Nc1cc(-c2cnc(OC)c3c2ccn3S(=O)(=O)c2ccccc2)ccn1`
Result: > 8.00

Q: Repeat for the following compound: `Cc1cnc(NC(=O)C2CC2)cc1-n1cc(C(N)=O)c(-c2cc(CN3CCCC3)ccc2Cl)c1`
Result: 6.00 to 6.82

Q: Repeat for the following compound: `CCOC(=O)Nc1cc(-c2cnc(C)c3c2ccn3S(=O)(=O)C2CC2)ccn1`
Result: > 8.00

Q: Repeat for the following compound: `Cc1cnc(N)cc1-n1cc(-c2nnc[nH]2)c(-c2ccccc2Cl)n1`
Result: 5.30 to 6.00

Q: Repeat for the following compound: `O=C(Cc1nnn[nH]1)Nc1cc(-c2cncc3c2ccn3S(=O)(=O)C2CC2)ccn1`
Result: 7.30 to 8.00

Q: Repeat for the following compound: `Cc1cnc(NC(=O)C2CC2)cc1-n1cc(C(N)=O)c(-c2ccccc2Cl)c1`
Result: > 7.30

Q: Repeat for the following compound: `Cc1cnc(NC(=O)C2CC2)cc1-n1cc(-c2ncc[nH]2)c(-c2ccccc2Cl)n1`
Result: > 7.30

Q: Repeat for the following compound: `Cc1cnc(NC(=O)C2CC2)cc1-n1cc(-c2nc[nH]n2)c(-c2ccccc2Cl)n1`
Result: > 7.30

Q: Repeat for the following compound: `C[C@@]1(C(F)(F)F)Cn2c(nc(N3CCOCC3)cc2=O)N1C1CCCC1`
Result: > 8.00

Q: Repeat for the following compound: `C=CCn1cc(-c2cc(NC(=O)C3CC3)ncc2C)cc1-c1nc[nH]n1`
Result: > 7.00

Q: Repeat for the following compound: `CC(=O)Nc1cc(-c2cc(C(N)=O)n(CC3CC3)c2)c(C)cn1`
Result: 6.00 to 7.00

Q: Repeat for the following compound: `CC(=O)Nc1cc(-c2cnc(C)c3c2c(F)cn3S(C)(=O)=O)ccn1`
Result: 7.30 to 8.00

Q: Repeat for the following compound: `COC(C)(C)CN1c2nc(N3CCOCC3)cc(=O)n2C[C@@]1(C)C(F)(F)F`
Result: > 8.00

Q: Repeat for the following compound: `COCCOC(=O)Nc1cc(-n2cc(-c3nc[nH]n3)c(-c3ccccc3Cl)c2)c(C)cn1`
Result: > 7.30

Q: Repeat for the following compound: `Cc1ccc(S(=O)(=O)NCC2(C)COC2)cc1-c1cncc(-c2cn(C)nc2C)n1`
Result: 5.37

Q: Repeat for the following compound: `CC(=O)Nc1cc(-n2cc(-c3ncn[nH]3)c(-c3ccnc(Cl)c3)n2)c(C)cn1`
Result: 6.00 to 6.82

Q: Repeat for the following compound: `CCc1ccccc1-c1nn(-c2cc(NC(C)=O)ncc2C)cc1-c1nc[nH]n1`
Result: 6.00 to 6.82

Q: Repeat for the following compound: `CC(=O)Nc1cc(-n2cc(C(N)=O)c(-c3ccccc3Cl)n2)c(Cl)cn1`
Result: 6.00 to 6.82
